Below: a set of entries, each annotated with reported activation.
- experimentalTarget: G-protein coupled receptor 151 (Homo sapiens) (UniProt Q8TDV0)
- Sequence (Q8TDV0 whole entry, looked up): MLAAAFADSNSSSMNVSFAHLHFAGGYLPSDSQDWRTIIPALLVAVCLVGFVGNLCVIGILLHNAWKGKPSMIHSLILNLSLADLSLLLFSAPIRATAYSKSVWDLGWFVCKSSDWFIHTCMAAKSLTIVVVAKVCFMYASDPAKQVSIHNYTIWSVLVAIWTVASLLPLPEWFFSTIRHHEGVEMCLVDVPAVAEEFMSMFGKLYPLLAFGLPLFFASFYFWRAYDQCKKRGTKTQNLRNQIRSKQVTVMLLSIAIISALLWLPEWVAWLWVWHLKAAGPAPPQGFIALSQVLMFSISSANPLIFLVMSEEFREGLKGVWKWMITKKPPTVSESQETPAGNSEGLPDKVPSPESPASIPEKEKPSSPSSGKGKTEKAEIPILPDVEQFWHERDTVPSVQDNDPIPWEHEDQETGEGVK
- protocol: activators of human GPR151, primary screen, cell-based, PathHunter beta-arrestin, luminescence (AID 1508602);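 note: 0% = median of compound wells and 100% = cells with positive control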
- experimentalContext: PathHunter beta-arrestin GPR151 cells, at 11.2 µM, stronger effect = higher value
Among all 650,000 compounds or so, about 6,800 (1%) were called active. Many of the other results were omitted from the sample, so actives are more common in it than they were.
Reply with just the number (in %).

>  <compound>
CCC(=O)N1CCc2cc(S(=O)(=O)CCC(=O)Nc3ccc(C(=O)OC)cc3)ccc21

>  <experimentalTarget>
G-protein coupled receptor 151 (Homo sapiens) (UniProt Q8TDV0)

>  <reportedMetric>
activation

>  <resultNumber>
0.246

$$$$

Name the recorded activation of the item CCCC1=C(C(=O)OCC)C(c2ccc(O)c(OC)c2)C(C#N)=C(N)O1 (stereo unspecified) in your answer. 2.22

Name the recorded activation of the item "O=C(CSc1ccc(F)cc1)Nc1cccc2ccccc12" in your answer. 7.44

Name the recorded activation of the item "Cc1cccc(NC(=O)CSc2ncn[nH]2)c1" in your answer. -0.535

----------
- experimentalTarget: G-protein coupled receptor 151 (Homo sapiens) (UniProt Q8TDV0)
- protocol: activators of human GPR151, primary screen, cell-based, PathHunter beta-arrestin, luminescence (AID 1508602);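 note: 0% = median of compound wells and 100% = cells with positive control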
- experimentalContext: PathHunter beta-arrestin GPR151 cells, at 11.2 µM, stronger effect = higher value
Among all 650,000 compounds or so, about 6,800 (1%) were called active. What follows is part of a selection rich in actives, with near analogues and random picks from the rest.
Below: a set of entries, each annotated with reported activation.
Reply with just the number (in %).

Solved entries (count: 5):
>  <compound>
COc1ccccc1NC(=O)NCc1nc(-c2ccc(OC)c(OC)c2)no1

>  <resultNumber>
7.48

$$$$
>  <compound>
COc1cccc(/C=C2/C(=O)NC(=O)N(c3ccccc3F)C2=O)c1

>  <resultNumber>
4.98

$$$$
>  <compound>
CC1=C(C(=O)N2CCOCC2)C(c2ccc(Cl)cc2)C2=C(CC(C)(C)CC2=O)N1 (configuration not stated)

>  <resultNumber>
0.141

$$$$
>  <compound>
O=C(NCc1ccsc1)c1ccc(-n2cccc2)cc1

>  <resultNumber>
6.14

$$$$
>  <compound>
COc1ccc(-c2nnc(SCCC#N)o2)cc1

>  <resultNumber>
10.1

$$$$

Name the recorded activation of the item "COc1cc2nc(-c3ccc(N4CCOCC4)nc3)nc(Nc3ccc(NC(C)=O)cc3)c2cc1OC" in your answer. 0.834

Name the recorded activation of the item "Cc1ccc(C(C)C)c(OCCNC(=O)c2cccs2)c1" in your answer. 0.446

Name the recorded activation of the item "CCN1/C(=C/c2ccc3cc(C)ccc3[n+]2CC)Sc2ccc(-c3ccccc3)cc21" in your answer. 18.5

Name the recorded activation of the item "CN1C(=O)NC(=O)/C(=C\c2ccc(-c3ccc(Br)c(Cl)c3)o2)C1=O" in your answer. -0.645

Name the recorded activation of the item "COc1ccc(CNC(=O)NCc2ccsc2)cc1" in your answer. -0.956

----------
- experimentalTarget: G-protein coupled receptor 151 (Homo sapiens)
- protocol: activators of human GPR151, primary screen, cell-based, PathHunter beta-arrestin, luminescence (AID 1508602);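 note: 0% = median of compound wells and 100% = cells with positive control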
- experimentalContext: PathHunter beta-arrestin GPR151 cells, at 11.2 µM
In all, about 650,000 compounds went through this assay and about 6,800 (1%) were called active. Rule as the data show it: active = activation above about 4.9%; inactive = the rest. The list comes from a sample in which actives are over-represented; it also holds close analogues and randomly drawn compounds.
Select the correct class. Options are true for active, false for inactive and nothing else.

Here's what some known entries look like.
>  <sampleSmiles>
Cc1ccc(OCCN2CCNCC2)cc1C

>  <experimentalTarget>
G-protein coupled receptor 151 (Homo sapiens)

>  <discreteLabel>
false

$$$$
>  <sampleSmiles>
O=[N+]([O-])c1ccc(Oc2ccc(Cl)c3cccnc23)c(Cl)c1

>  <experimentalTarget>
G-protein coupled receptor 151 (Homo sapiens)

>  <discreteLabel>
false

$$$$
>  <sampleSmiles>
CN1CC(=O)N2CCN(C(=O)OCc3ccccc3)C[C@@H]2C1=O

>  <experimentalTarget>
G-protein coupled receptor 151 (Homo sapiens)

>  <discreteLabel>
true

$$$$
>  <sampleSmiles>
NCCCC[C@@H]1NC(=O)[C@H]2CN(C(=O)OCc3ccccc3)CCN2C1=O

>  <experimentalTarget>
G-protein coupled receptor 151 (Homo sapiens)

>  <discreteLabel>
false

$$$$
>  <sampleSmiles>
Cc1ccc(Cn2cc(C#N)c([N+](=O)[O-])n2)cc1

>  <experimentalTarget>
G-protein coupled receptor 151 (Homo sapiens)

>  <discreteLabel>
false

$$$$
>  <sampleSmiles>
COc1ccc(S(=O)(=O)Oc2ccc(Cl)c3cccnc23)cc1OC

>  <experimentalTarget>
G-protein coupled receptor 151 (Homo sapiens)

>  <discreteLabel>
false

$$$$
>  <sampleSmiles>
CCCNc1nc(Cl)nc2c1ncn2Cc1ccc(C(F)(F)F)cc1

>  <experimentalTarget>
G-protein coupled receptor 151 (Homo sapiens)

>  <discreteLabel>
false

$$$$
>  <sampleSmiles>
COc1ccc(OC)c(S(=O)(=O)Oc2ccc(Cl)c3cccnc23)c1

>  <experimentalTarget>
G-protein coupled receptor 151 (Homo sapiens)

>  <discreteLabel>
true

$$$$

Write down the call the test reported for this compound. Item: "Cn1c(/C=C2\C(=O)Nc3ccccc32)nc2ccccc2c1=O" false

Write down the call the test reported for this compound. Item: "Cc1ccc(Cl)cc1NC(=O)CSc1nnc(-c2ccc(N)cc2)n1C" false

Write down the call the test reported for this compound. Item: "O=[N+]([O-])c1ccccc1S(=O)(=O)NCCSCc1ccc(Cl)cc1" false
